- Tested on: monocyte-free human T cells
- assay-summary: Inhibition of 5-HT-dependent T cell proliferation
- Type: cell-based
- condition-set: PWM (1:200) and 5-HT (100 μM) stimulated T cells, 3H-thymidine incorporation on day 7, tested at 33 μM-0.1 μM
pIC50: −log10 of the molar value.
Would you please tag the item label 1 when its pIC50 is 6 or above, and label 0 when it is below?

INSERT INTO results (compound, assigned_class) VALUES
  ('O=C1C2C3c4ccccc4C(c4ccccc43)C2C(=O)N1CCCN1CCN(CCc2ccccc2C(F)(F)F)CC1 (stereo not drawn)', 'label 0'),
  ('Fc1ccc(C(CCCN2CCN(CCCN3CC4C5c6ccccc6C(c6ccccc65)C4C3)CC2)c2ccc(F)cc2)cc1 (stereo not drawn)', 'label 1'),
  ('O=C1C2C3c4ccccc4C(c4ccccc43)C2C(=O)N1CCCN1CCN(C(c2ccccc2)c2ccccc2)CC1 (stereo not drawn)', 'label 0'),
  ('CC(C)(C)c1ccc(CN2CCN(CCCN3C(=O)C4C5c6ccccc6C(c6ccccc65)C4C3=O)CC2)cc1 (stereo not drawn)', 'label 0'),
  ('c1ccc2c(c1)C1c3ccccc3C2C2CN(CCCN3CCN(C4CCCCCC4)CC3)CC12 (stereo not drawn)', 'label 0'),
  ('O=C1C2C3c4ccccc4C(c4ccccc43)C2C(=O)N1CCCN1CCN(C2CCCC2)CC1 (stereo not drawn)', 'label 0');
